Quick reference: Ki of the listed items.
Biological target: Glutamate--tRNA ligase (Escherichia coli (strain K12), UniProt P04805)
Sequence (P04805 whole entry): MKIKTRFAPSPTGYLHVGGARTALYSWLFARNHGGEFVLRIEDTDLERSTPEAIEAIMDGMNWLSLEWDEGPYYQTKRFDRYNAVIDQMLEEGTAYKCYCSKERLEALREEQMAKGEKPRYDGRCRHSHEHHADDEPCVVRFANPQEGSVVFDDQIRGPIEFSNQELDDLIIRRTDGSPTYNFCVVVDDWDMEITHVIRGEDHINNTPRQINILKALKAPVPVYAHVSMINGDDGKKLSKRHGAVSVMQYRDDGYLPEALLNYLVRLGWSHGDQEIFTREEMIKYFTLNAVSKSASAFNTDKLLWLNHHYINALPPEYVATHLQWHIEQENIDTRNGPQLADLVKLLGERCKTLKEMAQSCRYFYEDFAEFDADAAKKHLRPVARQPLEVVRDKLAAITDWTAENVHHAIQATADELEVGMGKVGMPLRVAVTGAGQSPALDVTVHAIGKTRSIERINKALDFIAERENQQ
Test: Determination of the Inhibition Type and Constant (Ki)
Conditions: pH 7.2; 37 °C
Experimental: The Km and Kappm for the amino acid substrate were first calculated from Lineweaver-Burk plots. The Ki values were calculated from the Kappm vs [I] plot. The Ki values for the inhibitors with respect for the amino acid substrates were determined by measuring the apparent Km for the amino acid in the presence of saturating concentrations of both ATP and tRNA, and of various fixed concentrations of the inhibitor.
Could you give me the number in µM? Just the number is fine.

| SMILES_ENTRY | TESTED_TARGET | PROPERTY | ENDPOINT_VALUE |
| --- | --- | --- | --- |
| Nc1ncnc2c1ncn2[C@@H]1O[C@H](COS(=O)(=O)NC(=O)[C@@H]2CCC(=O)N2)[C@@H](O)[C@H]1O | Glutamate--tRNA ligase (Escherichia coli (strain K12), UniProt P04805) | Ki | 15 |

Input line: Query for Glutamate--tRNA ligase (Escherichia coli (strain K12), UniProt P04805): what Ki does the record show for Nc1ncnc2c1ncn2[C@@H]1O[C@H](COS(=O)(=O)NC(=O)[C@@H](N)CCC(=O)O)[C@@H](O)[C@H]1O ?
Output line: 0.0028
